Tested on: HepG2
Experimental protocol: Hepatocellular carcinoma cell viability, AlamarBlue
Type: cell-based
Condition details: Homo sapiens, 24 hours, read-out: Hepatocarcinoma Cell Line IC50 Values HepG2
Method: Cells were seeded into 96-well plate at 1×10^4 cell per well in complete medium+10% FCS and incubated for 24 hours prior to the addition of compounds at concentrations ranging from 50 μM to 50 nM. Cell viability was quantitated 24 hours after the addition of compounds using AlamarBlue® viable cell detection reagent. IC50 curves were determined using Graphpad Prism software.
Entries and their IC50 values follow.
Assay metric: IC50

>  <Compound>
CN(C)C(=O)c1cc2cnc(Nc3ccc(-c4csc5c(=O)cc(N6CCOCC6)oc45)cc3)nc2n1C1CCCC1

>  <Value observed>
4.2 µM

$$$$
>  <Compound>
O=c1cc(N2CCOCC2)oc2c(-c3ccc4c(c3)OCCO4)csc12 [Compound 0, reference compound]

>  <Value observed>
5 µM

$$$$
